Entries and their IC50
- assay.target: GST-tagged recombinant human TYRO3 kinase domain (Homo sapiens (Human), UniProt Q06418)
- Sequence (Q06418 518-790): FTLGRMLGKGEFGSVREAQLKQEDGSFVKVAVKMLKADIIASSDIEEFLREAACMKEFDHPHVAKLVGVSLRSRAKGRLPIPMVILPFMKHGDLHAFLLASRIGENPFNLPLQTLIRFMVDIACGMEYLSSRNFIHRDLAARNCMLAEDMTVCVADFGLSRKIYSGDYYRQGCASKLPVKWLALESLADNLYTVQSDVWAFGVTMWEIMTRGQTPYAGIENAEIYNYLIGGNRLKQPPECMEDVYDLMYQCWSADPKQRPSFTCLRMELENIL
- experimental.context: read-out: TYRO3 enzyme IC50
# value in nM; strip the unit string

Worked cases, answers included:
INSERT INTO results (compound, assay_target, measure_name, recorded_number) VALUES
  ('COC[C@@H](C)Nc1n[nH]c2nccc(Oc3ccc(NC(=O)c4cc(C(C)C)nn(-c5ccc(F)cc5)c4=O)nc3)c12', 'GST-tagged recombinant human TYRO3 kinase domain (Homo sapiens (Human), UniProt Q06418)', 'IC50', 728),
  ('COCC(C)(C)Nc1n[nH]c2nccc(Oc3ccc(NC(=O)c4ccnn(-c5ccc(F)cc5)c4=O)cc3F)c12', 'GST-tagged recombinant human TYRO3 kinase domain (Homo sapiens (Human), UniProt Q06418)', 'IC50', 131);

Here is another compound to look at.
Dear colleague, please send me the reported IC50 for `COCC(C)(C)Nc1n[nH]c2nccc(Oc3ccc(NC(=O)c4cn(C)c(=O)n(-c5ccc(F)cc5)c4=O)cc3F)c12` when you can. 104

----------
Entries and their IC50
- assay.target: GST-tagged recombinant human TYRO3 kinase domain (Homo sapiens (Human))
- experimental.context: read-out: TYRO3 enzyme IC50

INSERT INTO results (molecule, result) VALUES
  ('CCn1nc(C(=O)Nc2ccc(Oc3ccnc4[nH]nc(N[C@H](C)CO)c34)c(F)c2)c(=O)n(-c2ccc(F)c(F)c2)c1=O', '130 nM'),
  ('C[C@H](CO)Nc1n[nH]c2nccc(Oc3ccc(NC(=O)C4CC5(CC5)CN(c5ccc(F)cc5)C4=O)cc3F)c12 (stereo partly shown)', '1000 nM'),
  ('O=C(Nc1ccc(Oc2ccnc3[nH]nc(NC4CC(F)(F)C4)c23)c(F)c1)c1ccnn(-c2ccc(F)cc2)c1=O', '295 nM'),
  ('COCC(C)(C)Nc1n[nH]c2nccc(Oc3ccc(NC(=O)c4cn(CCO)c(=O)n(-c5ccc(F)cc5)c4=O)cc3F)c12', '420 nM'),
  ('C[C@H](CO)Nc1n[nH]c2nccc(Oc3ccc(NC(=O)c4cn(C)n(-c5ccc(F)cc5)c4=O)cc3F)c12', '364 nM');

Dear colleague, please send me the reported IC50 for `COCC1(Nc2n[nH]c3nccc(Oc4ccc(NC(=O)c5ccnn(-c6ccc(F)cc6)c5=O)cc4F)c23)CCCC1` when you can. 536 nM

Dear colleague, please send me the reported IC50 for `COC[C@@H](C)Nc1n[nH]c2nccc(Oc3ccc(NC(=O)c4cc(C)cn(-c5ccc(F)cc5)c4=O)nc3)c12` when you can. 439 nM

Dear colleague, please send me the reported IC50 for `C[C@H](CO)Nc1n[nH]c2nccc(Oc3ccc(NC(=O)c4cn(C)n(-c5ccccc5)c4=O)cc3F)c12` when you can. 432 nM

Dear colleague, please send me the reported IC50 for C[C@H](CO)Nc1n[nH]c2nccc(Oc3ccc(NC(=O)C4CCCN(c5ccc(F)cc5)C4=O)cc3F)c12 (stereo partly shown) when you can. 198 nM

Dear colleague, please send me the reported IC50 for `CC(C)n1cc(C(=O)Nc2ccc(Oc3ccnc4[nH]nc(N[C@H](C)CO)c34)c(F)c2)c(=O)n(-c2cnn(C)c2)c1=O` when you can. 767 nM

All figures here come from patent US11104676B2.
